System: HCC1569
procedure_details: cell number relative to DMSO (% of DMSO); higher = more cells (less growth inhibition / toxicity)
run_conditions: concentration: 10 µM; 24 h
measurement_type: cell number
Answers are plain numbers.

> print(dat)
                                   compound  recorded.result
1  CC(C)NCC(O)COc1cccc2ccccc12.Cl [(S)-Propranolol hydrochloride]             74.5

Could you report cell number for every entry in the following list?
1. CN1CCN2c3ccccc3Cc3ccccc3C2C1.Cl (centres undefined) [Mianserin hydrochloride]
2. O=C(NCCO)c1cc(C(=O)NCCO)cc(C(=O)NCCO)c1
3. CC(Cc1ccc(O)c(O)c1)(NN)C(=O)O.O (centres undefined)

Response given:
1. 105
2. 102
3. 103

For each of the compounds below, state cell number.
1. CC(=O)OCC(=O)C1(O)CCC2C3CCC4=CC(=O)CCC4(C)C3C(O)CC21C (centres undefined) [Hydrocortisone 21-acetate]
2. COCC(=O)NCC=Cc1ccc2ncnc(Nc3ccc(Oc4ccc(C)nc4)c(C)c3)c2c1
3. O=c1cc(-c2ccc(O)c(O)c2)oc2cc(O)c(C3OC(CO)C(O)C(O)C3O)c(O)c12 (centres undefined)
4. CCOC(=O)C1=C(C)NC(C)=C(C(=O)OCC)C1
5. O=C1CC(=O)c2c(Cl)c(Cl)c(Cl)c(Cl)c21

Response given:
99.8
76.8
101
97.2
101

---

What H1.0 immunofluorescence intensity was measured for each of the following?
Test system: TDF
procedure_details: H1.0 immunofluorescence intensity relative to DMSO (% of DMSO); higher = stronger H1.0 induction, active = 120 or more
run_conditions: concentration: 10 µM; 24 h

> print(dat)
                                   compound  system  recorded.result
1  CCCCOC(=O)NS(=O)(=O)c1sc(CC(C)C)cc1-c1ccc(Cn2c(CC)nc3c(C)cc(C)nc32)cc1     TDF  84.8 (inactive)
2  CC(CCc1ccccc1)NCC(O)c1ccc(O)c(C(N)=O)c1.Cl (centres undefined) [Labetalol hydrochloride]     TDF  83.5 (inactive)
3  O=c1[nH]c2cc(Cl)ccc2c(O)c1-c1cccc(Oc2ccccc2)c1     TDF  91.7 (inactive)
4  CC(C=CC1=C(C)CCCC1(C)C)=CC=CC(C)=CC(=O)O [13-cis-retinoic acid]     TDF  88.5 (inactive)
5  CCC(NC(C)C)C(O)c1ccc(O)c2[nH]c(=O)ccc12.Cl (centres undefined) [Procaterol.HCl]     TDF  83.2 (inactive)
6  Nc1nc(=O)c2nc(Br)n(C3OC4COP(=O)([O-])OC4C3O)c2[nH]1.[Na+] (centres undefined) [8-Bromo-cGMP sodium]     TDF  93.4 (inactive)
7  CN(C)S(=O)(=O)c1ccc2c(c1)C(=Cc1cc3c([nH]1)CCCC3)C(=O)N2     TDF  97.5 (inactive)
8                 CCCCCC(O)C=CC=O (racemic)     TDF  93.8 (inactive)

For the next question, use this compound.
Challenge: # input compound: CCCCS(=N)(=O)CCC(N)C(=O)O (centres undefined) [Buthionine sulfoximine] ; wanted: its H1.0 immunofluorescence intensity
Response given: 89.1 (inactive)

---

System: HCC1569
procedure_details: cell number relative to DMSO (% of DMSO); higher = more cells (less growth inhibition / toxicity)
run_conditions: concentration: 10 µM; 24 h
Field: cell number. Provide a value for each of the compounds that follow.
One number for each entry.

compound	cell number
COc1ccccc1CNCCCCCCNCCCCCCCCNCCCCCCNCc1ccccc1OC.Cl.Cl.Cl.Cl [Methoctramine tetrahydrochloride]	104
CC1=CCCC(C)(O)C=CC(C(C)C)C(OC(=O)c2ccc(O)cc2)C1 (configuration not stated) [Feroline]	102

# batch: return cell number for each of the 2 compounds below
1. CCc1cc(Cl)c(OC)c(C(=O)NCC2CCCN2CC)c1O.Cl (stereo not drawn) [S-(-)-Eticlopride hydrochloride]
2. CC12CCC(=O)C=C1CCC1C2C(O)CC2(C)C(C(=O)CO)CCC12 (configuration not stated) [Corticosterone]

Response given:
1: 102; 2: 101

Please report cell number for every entry that follows.
1. C#CCN1C(C)=C(C(=O)OC)C(c2cccc([N+](=O)[O-])c2)C(C(=O)OCC)=C1C (configuration not stated)
2. CCCCCC=CCC=CCC=CCC=CCCCC(=O)OC(COCCCCCCCCCCCCCCCC)COP(=O)([O-])OCC[N+](C)(C)C (configuration not stated) [Arachidonyl-PAF]
3. CC(C=CC=C(C)C=CC1=C(C)CCCC1(C)C)=CC=CC=C(C)C=CC=C(C)C=CC1=C(C)CCCC1(C)C

Response given:
97.2
98
101

---

System: HCC1569
procedure_details: H1.0 immunofluorescence intensity relative to DMSO (% of DMSO); higher = stronger H1.0 induction, active = 140 or more
run_conditions: concentration: 10 µM; 24 h
measurement_type: H1.0 immunofluorescence intensity
Numbers only.

Check out these entries, answers already filled in.
> print(dat)
                                   compound   system                   measurement.type  recorded.result
1  CCNC(=O)C1OC(n2cnc3c(NCc4ccccc4)ncnc32)C(O)C1O (stereo not given)  HCC1569  H1.0 immunofluorescence intensity              114
2  Cc1cn(C2CC(N=[N+]=[N-])C(CO)O2)c(=O)[nH]c1=O (stereo not given)  HCC1569  H1.0 immunofluorescence intensity             97.8
3  NCCCCN=C(N)N.O=S(=O)(O)O [Agmatine sulfate]  HCC1569  H1.0 immunofluorescence intensity             92.4
4  CCOC(=O)CN1C(=O)c2ccc3c4c(ccc(c24)C1=O)C(=O)N(CC(=O)OCC)C3=O  HCC1569  H1.0 immunofluorescence intensity              100
5  CC1(C)C(C(=O)O)N2C(=O)CC2S1(=O)=O (stereo not given)  HCC1569  H1.0 immunofluorescence intensity              108

# per-item lookup of H1.0 immunofluorescence intensity; items listed below
1. CC(=O)OC1CC2CCC3C(CCC4(C)C3CC([N+]3(C)CCCCC3)C4OC(C)=O)C2(C)CC1N1CCCCC1 (stereo not given)
2. COC(=O)C1C(O)CCC2CN3CCc4c([nH]c5ccccc45)C3CC21.Cl (stereo not given) [Rauwolscine]
3. Cl.NC1C=CC=C(C(=O)O)C1 (stereo not given) [Gabaculine hydrochloride]
4. CCCCCCCCCCCCCCCCCCc1ccc(C(=O)/C=C/C(=O)O)cc1
5. CCCCCCCCCCCC1=C(O)C(=O)C=C(O)C1=O
6. COc1cc(O)c2c(=O)c(O)c(-c3ccc(O)c(O)c3)oc2c1
7. Cn1cnc2c(NC3CCCC3)ncnc21

Response given:
1. 110
2. 95.6
3. 105
4. 107
5. 87.3
6. 130
7. 159

Record H1.0 immunofluorescence intensity for all entries; do not skip any.
1. COc1cc2ncc(-c3ccccc3)nc2cc1OC
2. COc1cc2oc(=O)ccc2cc1O

Response given:
107
89.1

List reported H1.0 immunofluorescence intensity for each of these compounds:
1. CN=C(NC#N)Nc1ccc(C2=NNC(=O)CC2C)cc1 (stereo not given)
2. CCCCCC=CCC(O)C=CC=CC=CC(O)CCCC(=O)O (stereo not given) [Leukotriene B4]
3. COc1ncnc(NS(=O)(=O)c2ccc(N)cc2)c1OC
4. O=C(O)C=Cc1ccc(O)c(O)c1
5. CCCCCC(=O)C=CC=CCCCCCCCC(=O)O

Response given:
1. 115
2. 102
3. 89.2
4. 84.5
5. 103

Return reported H1.0 immunofluorescence intensity values for all items listed beneath this line.
1. CC(C)(CCCCCCCCCCC(C)(C)CC(=O)O)CC(=O)O
2. CC(C(=O)O)c1ccc2c(c1)Cc1cccnc1O2 (stereo not given)
3. CC(O)CCCC(O)C=CC1C(O)CC(=O)C1CC=CCCCC(=O)O [19(R)-Hydroxy-prostaglandin E2]
4. O=c1cc(-c2ccc(O)cc2)oc2cc(O)c(C3OC(CO)C(O)C(O)C3O)c(O)c12 (stereo not given)
5. Nc1nc(=O)c2ncn(CCC(CO)CO)c2[nH]1

Response given:
[93.7, 102, 92.1, 88.1, 117]

Please give H1.0 immunofluorescence intensity, item by item, for the list that follows.
1. CC(=O)Nc1ccc(NC(=S)NC(=O)c2ccc(C(C)(C)C)cc2)cc1
2. O=C(Nc1cccc(Nc2ncc(Br)c(NCCc3cnc[nH]3)n2)c1)N1CCCC1
3. O=C1CCC(c2ccc(-n3ccnc3)cc2)=NN1
4. COc1ccc(C2CC(=O)c3c(O)cc(OC4OC(COC5OC(C)C(O)C(O)C5O)C(O)C(O)C4O)cc3O2)cc1O (stereo not given)
5. Cl.Oc1ccc(C2CNCCc3c2cc(O)c(O)c3Cl)cc1 (stereo not given) [Fenoldopam.HCl]

Response given:
1. 153
2. 109
3. 118
4. 84.8
5. 121

Please give H1.0 immunofluorescence intensity, item by item, for the list that follows.
1. CC1CNCCN1S(=O)(=O)c1cccc2cnccc12.Cl.Cl (stereo not given)
2. CCOC(=O)C1=C(COCCN)NC(C)=C(C(=O)OC)C1c1ccccc1Cl (stereo not given)

Response given:
1: 83; 2: 106

For the 4 compounds below, give their H1.0 immunofluorescence intensity values.
1. CCN(CC)CCNC(=O)c1c(C)[nH]c(C=C2C(=O)Nc3ccc(Cl)cc32)c1C
2. O=c1[nH]c(=O)n(C2CCCO2)cc1F (stereo not given)
3. CCC1Cc2cc(O)ccc2C2=C1c1ccc(O)cc1CC2CC [(R,R)-cis-Diethyl tetrahydro-2,8-chrysenediol]
4. CN(C)CC=C(c1ccc(Br)cc1)c1cccnc1.Cl.Cl [Zimelidine dihydrochloride]

Response given:
1: 213; 2: 103; 3: 107; 4: 116
